System: SW-620
Assay: NCI tumour cell line growth inhibition, 48 h
The source made the active and inactive calls. Cut-off read from the data, not from the text of the source: active = GI50 up to about 1.1 µM and inactive = higher.
Pick from 1 (active), -1 (inactive) when you respond.

Worked set:
| Molecule | Group Label |
| --- | --- |
| COc1ccccc1C1(c2c(OC(C)C)c(=O)c2=O)SCCCS1 | -1 |
| CN(C)CCN1C(=O)N(CCN(C)C)c2c3cc(O)ccc3nc3c([N+](=O)[O-])ccc1c23 | -1 |
| O=c1cccccc1NCCCCCCCCNc1cccccc1=O | -1 |
| COc1cc(/C=C/c2ccc(OC)c(OC)c2OC)cc(OC)c1OC | -1 |
| COc1ccc2nc3cc([N+](=O)[O-])ccc3c(NNc3ccc(Cl)cc3)c2c1 | -1 |

Q: Hello, I am checking results. What call was entered for CCN(CC)CCCNc1nncc2cc3c([nH]c4ccccc43)c(C)c12 ?
A: -1

Q: Hello, I am checking results. What call was entered for C=CCCC1(CCP(=O)(c2ccccc2)c2ccccc2)OCCO1 ?
A: -1

Q: Hello, I am checking results. What call was entered for O=c1c(-c2ccc(Cl)cc2)nnc2n(Cc3ccccc3)c3ccccc3n12 ?
A: -1

Q: Hello, I am checking results. What call was entered for CN(C)CCCCC1CCN(CC(=O)N2c3ccccc3NC(=O)c3ccccc32)CC1 ?
A: -1

Q: Hello, I am checking results. What call was entered for COc1cc(N(C)C)c(OC)cc1C=C1C=CC=C1 ?
A: -1

Q: Hello, I am checking results. What call was entered for COc1cc([C@H]2c3cc4c(cc3[C@H](NCc3ccc([N+](=O)[O-])cc3)C3COC(=O)[C@H]32)OCO4)cc(OC)c1O (stereo not given in full) ?
A: 1

Q: Hello, I am checking results. What call was entered for CC12CC(c3ccccc3O1)C(C(=O)Nc1ccc(Cl)cc1Cl)C(=O)N2 (stereo not given) ?
A: -1

----------
GI50 by entry:
Test system: SK-MEL-28
Assay: NCI tumour cell line growth inhibition, 48 h
The source made the active and inactive calls. Cut-off read from the data, not from the text of the source: active = GI50 up to about 1.1 µM and inactive = higher.

Record excerpt, results attached:
| Molecule | Tested Target | Endpoint Value |
| --- | --- | --- |
| Cc1ccc(/C=C2\CCCCCC2=O)cc1 | SK-MEL-28 | > 100 µM (inactive) |
| COc1ccc(C2CC(=O)Oc3ccccc3O2)cc1 (stereo unspecified) | SK-MEL-28 | > 100 µM (inactive) |
| CN(C)CCN1C(=O)N(CCN(C)C)c2c3cc(O)ccc3nc3c([N+](=O)[O-])ccc1c23 | SK-MEL-28 | 25.3 µM (inactive) |
| COc1ccc(/C=C2\CCc3cc(OC)c(OC)cc3C2=O)cc1 | SK-MEL-28 | > 10 µM (inactive) |
| COC(=O)c1cc2c(c(C(=O)OC)c1O)C(=O)C=CC2=O | SK-MEL-28 | > 39.9 µM (inactive) |
| CN(C)CCCNc1ccnc2c([N+](=O)[O-])cccc12 | SK-MEL-28 | 95.7 µM (inactive) |
| O=C1C(c2c(O)[nH]c3ccc(Br)cc23)=Nc2ccc(Br)cc21 | SK-MEL-28 | > 100 µM (inactive) |
| O=[N+]([O-])c1ccc(Oc2c(Cl)cc(S(=O)(=O)N/C(=N\O)Nc3ccc(Cl)cc3)cc2Cl)c(Cl)c1 | SK-MEL-28 | 21.6 µM (inactive) |

Q: Consider the molecule Cc1cc(=O)cc2sc3cc(Cl)ccc3nc1-2 . State its measured GI50.
A: 17.8 µM (inactive)

Q: Consider the molecule CNC(=O)ON(C(C)=O)C(=O)NC [CARACEMIDE] . State its measured GI50.
A: 69.5 µM (inactive)

Q: Consider the molecule CN(C)CC1=Nc2cccc3cccc(c23)N1 . State its measured GI50.
A: 22.1 µM (inactive)

----------
System: CCRF-CEM
Assay: NCI tumour cell line growth inhibition, 48 h
Activity calls are given as the source filed them. Rule as the data show it: active = GI50 up to about 1.1 µM and inactive = higher.
Pick from active, inactive when you respond.

Worked set:
| Molecule | Group Label |
| --- | --- |
| CCCCCCCCCCCCCC(=O)OC1C(CO)OC(=O)C1O (stereo not given) | inactive |
| COC(=O)c1cc2c(c(C(=O)OC)c1O)C(=O)C=CC2=O | inactive |
| C[n+]1c2ccccc2c2/c(=C\C#N)c3ccccc3n21 | inactive |
| C=CC1ON(Cc2ccccc2)CCc2cc(OC)c(OC)cc21 (stereo not given) | inactive |

Turning now to a further molecule:
Q: Hello, I am checking results. What call was entered for C=CC1(c2ccc(-c3ccccc3)cc2)OCCO1 ?
A: inactive

----------
Test system: 786-0
Test: NCI tumour cell line growth inhibition, 48 h
Calls of active or inactive are those of the source. No stated cut-off is given here; in the data, active = GI50 up to about 1.1 µM and inactive = higher.
Pick from True = active, False = inactive when you respond.

| Compound | Group Label |
| --- | --- |
| COc1ccc2c(c1)OCCCN(C)OC2c1ccccc1 (stereo unspecified) | False |
| CC(C)c1c(O[Si](C(C)C)(C(C)C)C(C)C)c2c3c(ccc4c3c1OC4(C)C)C(C)CC2 (stereo unspecified) | False |
| CN(C)CC(O)CNC(=O)Nc1ccccc1 (stereo unspecified) | False |
| CC1(C)COC2=C(C1)C(=O)c1ccccc1C2=O | False |
| COc1ccccc1-n1c(N)c2c(C)c(-c3ccccc3)[nH]c2nc1=S | False |
| COc1c(C)c(C/C=C(\C)CC/C=C(\C)CCC=C(C)C)c(OC)c(OC)c1OC | False |

Q: Hello, I am checking results. What call was entered for CC(CCOc1ccc2ccc(=O)oc2c1)C1=CC(=O)C(C)(C)O1 (stereo unspecified) ?
A: False

Q: Hello, I am checking results. What call was entered for S=C(N/N=C/c1ccco1)NC12CC3CC(CC(C3)C1)C2 ?
A: False

Q: Hello, I am checking results. What call was entered for CC1=C2C(=CC(C)(C)[C@@H]2O)C(=O)[C@](C)(O)C12CC2 ?
A: True

Q: Hello, I am checking results. What call was entered for COc1cc(/C=C2\C[C@H]3[C@@H]4CC=C5C[C@@H](N6CCCC6)CC[C@]5(C)[C@H]4CC[C@]3(C)[C@H]2O)cc(OC)c1OC ?
A: False

Q: Hello, I am checking results. What call was entered for O=C1C(Cl)=C(Nc2ccc(S(=O)(=O)O)cc2)C(=O)c2ccccc21 ?
A: False

Q: Hello, I am checking results. What call was entered for COc1cc([C@H]2c3cc4c(cc3[C@H](NCc3ccc([N+](=O)[O-])cc3)C3COC(=O)[C@H]32)OCO4)cc(OC)c1O (stereo partly specified) ?
A: True

Q: Hello, I am checking results. What call was entered for COc1ccc2oc3c(C)cc4c(OC)nnc(OC)c4c3c2c1 ?
A: False

Q: Hello, I am checking results. What call was entered for Cc1ccc(/C=C2\CCCCCC2=O)cc1 ?
A: False

----------
Test system: KM12
Assay: NCI tumour cell line growth inhibition, 48 h
Calls of active or inactive are those of the source. Cut-off read from the data, not from the text of the source: active = GI50 up to about 1.1 µM and inactive = higher.
Quantity: GI50

| Molecule | GI50 |
| --- | --- |
| O=c1c(-c2ccc(Cl)cc2)nnc2n(Cc3ccccc3)c3ccccc3n12 | 28.9 µM (inactive) |
| c1ccc(C2(c3ccccc3)S/C(=C3/SC(c4ccccc4)(c4ccccc4)c4ccccc43)c3ccccc32)cc1 | > 100 µM (inactive) |

Q: Enter recorded GI50 with KM12 for O=C1/C(=C\c2cccc(Oc3ccccc3)c2)SC(c2ccccc2)N1c1cccc(Cl)c1 (stereo not given) here.
A: 35.8 µM (inactive)

Q: Enter recorded GI50 with KM12 for CC(C(=O)NCNC(=O)c1ccccc1)C(=O)Nc1ccccc1 (stereo not given) here.
A: > 100 µM (inactive)

Q: Enter recorded GI50 with KM12 for CCCCOC(=O)NC(=O)c1cn(C2CCCCC2)c(=O)[nH]c1=O here.
A: 86.1 µM (inactive)

----------
GI50 by entry:
System: SK-OV-3
Test: NCI tumour cell line growth inhibition, 48 h
Calls of active or inactive are those of the source. Rule as the data show it: active = GI50 up to about 1.1 µM and inactive = higher. Square brackets hold non-standard residues; d marks the D form. Peptide text beside a SMILES is read from it. * marks the point of attachment. Bn2Val = CC(C)[C@@H](C(=O)*)N(Cc1ccccc1)Cc1ccccc1; NH(3,4-diMeO-benzyl) = COc1ccc(CN*)cc1OC; NMeV = CN[C@H](C(=O)O)C(C)C; dNMeA = CN[C@H](C)C(=O)O

| Molecule | Tested Target | Quantity | Endpoint Value |
| --- | --- | --- | --- |
| COc1ccc2cc1Oc1ccc(cc1)C[C@@H]1c3cc(c(OC)cc3CCN1C)Oc1c(OC)c(OC)cc3c1[C@@H](C2)N(C)CC3 [PHAEANTHINE] | SK-OV-3 | GI50 | 24.7 µM (inactive) |

Q: Enter recorded GI50 with SK-OV-3 for O=C(O)Cn1ncn(NC(=O)Cc2ccccc2)c1=S here.
A: > 10 µM (inactive)

Q: Enter recorded GI50 with SK-OV-3 for C#CCCCCC#Cc1ccccc1C(=O)C=[N+]=[N-] here.
A: > 100 µM (inactive)

Q: Enter recorded GI50 with SK-OV-3 for COc1ccc(CNC(=O)[C@@H](C)N(C)C(=O)[C@@H]2CCCN2C(=O)[C@H](C(C)C)N(C)C(=O)[C@@H](NC(=O)[C@H](C(C)C)N(Cc2ccccc2)Cc2ccccc2)C(C)C)cc1OC (Bn2Val-V[NMeV]P[dNMeA]-{NH(3,4-diMeO-benzyl)}) here.
A: 12.8 µM (inactive)

Q: Enter recorded GI50 with SK-OV-3 for C=CCOC(=O)Cn1ccc(=O)[nH]c1=O here.
A: > 100 µM (inactive)

Q: Enter recorded GI50 with SK-OV-3 for CC(C)=CCC(O)[C@](C)(O)[C@H]1[C@H](O)C[C@@]2(C)[C@@H]3CCc4cc(O)c(OC5OC(CO)C(O)C(O)C5O)cc4C3(C)C(=O)C[C@]12C (stereo partly drawn) here.
A: > 100 µM (inactive)

Q: Enter recorded GI50 with SK-OV-3 for CN(C)CC1=Nc2cccc3cccc(c23)N1 here.
A: > 100 µM (inactive)

Q: Enter recorded GI50 with SK-OV-3 for CC1=C/C(=C(/c2ccc(O)c(C)c2)c2ccccc2C(=O)O)C=CC1=O here.
A: 19.2 µM (inactive)
